Origin of measurements: patent US20160040149A1

- PROTOCOL DESCRIPTION: Saturation mutagenesis of SEQ ID NO:109: dicamba decarboxylation activity of point mutants (CO2 released), fold of backbone (Tables 7, 8, Megatable 1)
- TEST CONTEXT: decarboxylation activity (CO2 released) of point mutant vs unmutated backbone protein; backbone SEQ ID NO: 109
QUANTITY KIND: Fold Activity (fold)
Give bare numbers, in fold.

Your task in this section: give Fold Activity for each listed record.
1. 1 (protein, listed as Rhizobium sp.) MAQGKVALEEHFAIPETLQDSAGFVPGDYWKELQHRLLDIQDTRLKLMDAHGIETMILSLNAPAVQAIPDRRKAIEIARRANDVLAEECAKRPDRFLAFAALPLQDPDAATEELQRCVNDLGFVGALVNGFSQEGDGQTPLYYDLPQYRPFWGEVEKLDVPFYLHPRNPLPQDSRIYDGHPWLLGPTWAFAQETAVHALRLMASGLFDEHPRLNIILGHMGEGLPYMMWRIDHRNAWVKLPPRYPAKRRFMDYFNENFHITTSGNFRTQTLIDAILEIGADRILFSTDWPFENIDHASDWFNATSIAEADRVKIGRTNARRLFKLDGA
2. 2 (protein, listed as Serratia sp.) MAKIICLEEHTLDKALVMASMPAALEQAPFLSDWGKTVTDGNLPDRSRPQIEKNDLINIKGADIGRGRLDDMDVAGITMQVLSVGGFPHLISAAEGVDLNRAANDRLADAVNAHPDRFAAFATLPWAQPDSAEKELERAVKELGFKGALLNGRPSTHFLDHPDYDGLLARFNALGVPLYLHPGLPVRSVQQAYYGGFSDEVTARLSMFGWGWHHEAGIHLLRLILSGAFDKYPNLQVISGHWGEMLPFWLQRLDDSLPQAATGLRRTIAQTFKEQVYVTPSGMLTLPHFQFIYALLGAERIIFSVDYPYQTLDGVKAFIQSLPVPEEAKEAIAFRNAERLLGLTS

1.2
1.1
